assayed-system: EGFR (human) (UniProt P00533)
Sequence (P00533 whole entry, looked up): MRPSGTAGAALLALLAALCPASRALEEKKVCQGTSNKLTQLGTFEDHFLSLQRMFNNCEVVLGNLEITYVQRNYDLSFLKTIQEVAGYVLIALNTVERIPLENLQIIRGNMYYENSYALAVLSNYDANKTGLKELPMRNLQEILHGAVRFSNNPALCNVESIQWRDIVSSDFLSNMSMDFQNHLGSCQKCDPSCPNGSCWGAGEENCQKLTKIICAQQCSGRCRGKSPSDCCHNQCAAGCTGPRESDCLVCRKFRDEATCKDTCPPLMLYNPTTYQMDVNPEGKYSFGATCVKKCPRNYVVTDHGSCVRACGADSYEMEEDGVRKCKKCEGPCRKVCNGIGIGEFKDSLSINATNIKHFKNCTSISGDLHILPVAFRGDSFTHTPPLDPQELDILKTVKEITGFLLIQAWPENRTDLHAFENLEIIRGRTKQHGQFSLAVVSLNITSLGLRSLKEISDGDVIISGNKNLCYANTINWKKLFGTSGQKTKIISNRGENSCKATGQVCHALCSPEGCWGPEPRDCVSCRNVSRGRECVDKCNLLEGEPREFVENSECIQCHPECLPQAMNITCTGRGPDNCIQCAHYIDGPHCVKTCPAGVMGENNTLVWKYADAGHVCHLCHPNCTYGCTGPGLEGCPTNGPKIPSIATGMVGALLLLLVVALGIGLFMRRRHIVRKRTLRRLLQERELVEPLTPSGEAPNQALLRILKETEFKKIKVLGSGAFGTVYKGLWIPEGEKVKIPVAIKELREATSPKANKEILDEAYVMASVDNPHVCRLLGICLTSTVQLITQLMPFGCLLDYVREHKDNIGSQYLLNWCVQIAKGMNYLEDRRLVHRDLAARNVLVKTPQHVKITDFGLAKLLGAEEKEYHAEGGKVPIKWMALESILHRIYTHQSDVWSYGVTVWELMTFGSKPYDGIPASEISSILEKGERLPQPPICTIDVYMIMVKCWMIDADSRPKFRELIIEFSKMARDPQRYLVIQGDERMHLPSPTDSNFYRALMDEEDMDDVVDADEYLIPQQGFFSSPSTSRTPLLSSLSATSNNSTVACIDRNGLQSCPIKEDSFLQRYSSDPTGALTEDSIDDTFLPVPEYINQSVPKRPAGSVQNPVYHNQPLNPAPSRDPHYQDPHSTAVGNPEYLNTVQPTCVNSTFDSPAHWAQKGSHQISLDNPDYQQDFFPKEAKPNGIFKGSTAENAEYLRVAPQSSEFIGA
measurement-conditions: du-145
Assignment: determine reported pIC50 for the given molecules.
Expect pIC50 as a plain number equal to -log10 of the molar concentration.

// query Please report the measured pIC50 for O=C(NC1CCc2ccccc2C1)c1cc(NCc2cc(O)ccc2O)ccc1O (stereo unspecified) tested on EGFR (human) (UniProt P00533).
// result 4.77

// query Please report the measured pIC50 for `CCCCCCNC(=O)c1cc(NCc2cc(O)ccc2O)ccc1O` tested on EGFR (human) (UniProt P00533).
// result 4.82

// query Please report the measured pIC50 for `O=C(NCCc1ccc(F)cc1)c1cc(NCc2cc(O)ccc2O)ccc1O` tested on EGFR (human) (UniProt P00533).
// result 4.74

// query Please report the measured pIC50 for `O=C(NCCc1ccccc1)c1ccc(NCc2cc(O)ccc2O)cc1` tested on EGFR (human) (UniProt P00533).
// result 4.85

// query Please report the measured pIC50 for `O=C(NCc1ccccc1)c1cc(NCc2cc(O)ccc2O)ccc1O` tested on EGFR (human) (UniProt P00533).
// result 4.80

// query Please report the measured pIC50 for `O=C(NCCCc1ccccc1)c1ccc(NCc2cc(O)ccc2O)cc1` tested on EGFR (human) (UniProt P00533).
// result 4.89

// query Please report the measured pIC50 for `O=C(NCc1ccccc1)c1ccc(NCc2cc(O)ccc2O)cc1` tested on EGFR (human) (UniProt P00533).
// result 4.82

// query Please report the measured pIC50 for `O=C(NCCc1ccc(Br)cc1)c1cc(NCc2cc(O)ccc2O)ccc1O` tested on EGFR (human) (UniProt P00533).
// result 4.80

// query Please report the measured pIC50 for `CCCCCCCCCCCCNC(=O)c1cc(NCc2cc(O)ccc2O)ccc1O` tested on EGFR (human) (UniProt P00533).
// result 4.96

// query Please report the measured pIC50 for `O=C(NCCc1ccc(O)cc1)c1cc(NCc2cc(O)ccc2O)ccc1O` tested on EGFR (human) (UniProt P00533).
// result 4.77

// query Please report the measured pIC50 for `O=C(NCCCc1ccccc1)c1cc(NCc2cc(O)ccc2O)ccc1O` tested on EGFR (human) (UniProt P00533).
// result 5.08

====

assayed-system: EGFR (human)
measurement-conditions: mcf-7
pIC50: −log10 of the molar value.
observation-type: pIC50

// query Provide measured pIC50 value, entry: CC(C)CCCC(C)[C@H]1CCC2C3CCC4C[C@@H](NC(=O)c5cc(NCc6cc(O)ccc6O)ccc5O)CC[C@]4(C)C3CC[C@@]21C (stereo partly specified)
// result < 4.30

====

Assignment: determine reported IC50 for the given molecules.
assayed-system: EGFR (human)
measurement-conditions: sn12c
Number in µM, nothing else.

// query Please report the measured IC50 for `O=C(NCc1ccccc1)c1cc(NCc2cc(O)ccc2O)ccc1O` tested on EGFR (human).
// result 12

// query Please report the measured IC50 for `CCCCCCCCCCCCNC(=O)c1cc(NCc2cc(O)ccc2O)ccc1O` tested on EGFR (human).
// result 2.6

// query Please report the measured IC50 for `O=C(NCCc1ccc(Cl)cc1)c1cc(NCc2cc(O)ccc2O)ccc1O` tested on EGFR (human).
// result 9.8

// query Please report the measured IC50 for `O=C(NCc1ccccc1)c1ccc(NCc2cc(O)ccc2O)cc1` tested on EGFR (human).
// result 9.7

// query Please report the measured IC50 for `O=C(NCCc1ccccc1)c1cccc(NCc2cc(O)ccc2O)c1` tested on EGFR (human).
// result 13

// query Please report the measured IC50 for `O=C(NCCc1ccccn1)c1cc(NCc2cc(O)ccc2O)ccc1O` tested on EGFR (human).
// result 19

// query Please report the measured IC50 for `O=C(NCCc1ccccc1)c1cc(NCc2cc(O)ccc2O)ccc1O` tested on EGFR (human).
// result 18

// query Please report the measured IC50 for `O=C(NCCc1ccc(O)cc1)c1cc(NCc2cc(O)ccc2O)ccc1O` tested on EGFR (human).
// result 19

// query Please report the measured IC50 for `O=C(NCCCc1ccccc1)c1cc(NCc2cc(O)ccc2O)ccc1O` tested on EGFR (human).
// result 15

// query Please report the measured IC50 for `O=C(NCCCc1ccccc1)c1ccc(NCc2cc(O)ccc2O)cc1` tested on EGFR (human).
// result 3.2

// query Please report the measured IC50 for `CCCCCCNC(=O)c1cc(NCc2cc(O)ccc2O)ccc1O` tested on EGFR (human).
// result 6.1

====

assayed-system: EGFR (human)
measurement-conditions: uacc-62
Assignment: determine reported IC50 for the given molecules.
Number in µM, nothing else.

// query Provide measured IC50 value, entry: `CCCCCCNC(=O)c1cc(NCc2cc(O)ccc2O)ccc1O`
// result 12

// query Provide measured IC50 value, entry: `O=C(NCCc1ccccc1)c1cccc(NCc2cc(O)ccc2O)c1`
// result 13

// query Provide measured IC50 value, entry: `O=C(NCCc1ccccn1)c1cc(NCc2cc(O)ccc2O)ccc1O`
// result 17

// query Provide measured IC50 value, entry: `O=C(NCCCc1ccccc1)c1cc(NCc2cc(O)ccc2O)ccc1O`
// result 14

// query Provide measured IC50 value, entry: `O=C(NCCc1ccccc1)c1cc(NCc2cc(O)ccc2O)ccc1O`
// result 14

// query Provide measured IC50 value, entry: `O=C(NCCc1ccc(O)cc1)c1cc(NCc2cc(O)ccc2O)ccc1O`
// result 18

====

assayed-system: EGFR (human) (UniProt P00533)
measurement-conditions: sf-539
Assignment: determine reported pIC50 for the given molecules.
Expect pIC50 as a plain number equal to -log10 of the molar concentration.

// query Provide measured pIC50 value, entry: `O=C(NCCc1ccc(Cl)cc1)c1cc(NCc2cc(O)ccc2O)ccc1O`
// result 5.08

// query Provide measured pIC50 value, entry: `CCCCCCNC(=O)c1cc(NCc2cc(O)ccc2O)ccc1O`
// result 5.64

// query Provide measured pIC50 value, entry: `CCCCCCCCCCCCNC(=O)c1cc(NCc2cc(O)ccc2O)ccc1O`
// result 4.70

// query Provide measured pIC50 value, entry: `O=C(NCCc1ccccc1)c1ccc(NCc2cc(O)ccc2O)cc1`
// result 5.07

// query Provide measured pIC50 value, entry: `O=C(NCCN1CCOCC1)c1cc(NCc2cc(O)ccc2O)ccc1O`
// result 4.72

// query Provide measured pIC50 value, entry: `O=C(NCCc1ccc(O)cc1)c1cc(NCc2cc(O)ccc2O)ccc1O`
// result 5.60

====

Assignment: determine reported IC50 for the given compounds.
assayed-system: EGFR (human)
measurement-conditions: du-145
Number in µM, nothing else.

// query Provide measured IC50 value, entry: `O=C(NCCc1ccccn1)c1cc(NCc2cc(O)ccc2O)ccc1O`
// result 17

// query Provide measured IC50 value, entry: `O=C(NCCc1ccccc1)c1cc(NCc2cc(O)ccc2O)ccc1O`
// result 16

// query Provide measured IC50 value, entry: `O=C(NCCN1CCOCC1)c1cc(NCc2cc(O)ccc2O)ccc1O`
// result 17

// query Provide measured IC50 value, entry: `O=C(NCCc1ccc(Cl)cc1)c1cc(NCc2cc(O)ccc2O)ccc1O`
// result 16

// query Provide measured IC50 value, entry: `O=C(NCCc1ccccc1)c1cccc(NCc2cc(O)ccc2O)c1`
// result 17

// query Provide measured IC50 value, entry: `COc1ccc(CCNC(=O)c2cc(NCc3cc(O)ccc3O)ccc2O)cc1`
// result 21

====

assayed-system: UniProt P00533
measurement-conditions: ccrf-cem
pIC50: −log10 of the molar value.
Values of pIC50 greater than or equal to 6 map to true (1); values below map to false (0).

// query Dear colleague, could you confirm whether `O=C(NCCc1ccc(Cl)cc1)c1cc(NCc2cc(O)ccc2O)ccc1O` has pIC50 at or above 6?
// result false (0)

// query Dear colleague, could you confirm whether `O=C(NCCc1ccccc1)c1cc(NCc2cc(O)ccc2O)ccc1O` has pIC50 at or above 6?
// result false (0)

// query Dear colleague, could you confirm whether `O=C(NCCc1ccc(F)cc1)c1cc(NCc2cc(O)ccc2O)ccc1O` has pIC50 at or above 6?
// result true (1)

// query Dear colleague, could you confirm whether `COc1ccc(CCNC(=O)c2cc(NCc3cc(O)ccc3O)ccc2O)cc1` has pIC50 at or above 6?
// result false (0)

// query Dear colleague, could you confirm whether `O=C(NCc1ccccc1)c1ccc(NCc2cc(O)ccc2O)cc1` has pIC50 at or above 6?
// result false (0)

// query Dear colleague, could you confirm whether `O=C(NCCc1ccccc1)c1ccc(NCc2cc(O)ccc2O)cc1` has pIC50 at or above 6?
// result true (1)

// query Dear colleague, could you confirm whether `O=C(NCCc1ccccc1)c1cccc(NCc2cc(O)ccc2O)c1` has pIC50 at or above 6?
// result false (0)

// query Dear colleague, could you confirm whether `CCCCCCCCCCCCNC(=O)c1cc(NCc2cc(O)ccc2O)ccc1O` has pIC50 at or above 6?
// result true (1)

// query Dear colleague, could you confirm whether `O=C(NCCN1CCOCC1)c1cc(NCc2cc(O)ccc2O)ccc1O` has pIC50 at or above 6?
// result false (0)

// query Dear colleague, could you confirm whether `CCCCCCNC(=O)c1cc(NCc2cc(O)ccc2O)ccc1O` has pIC50 at or above 6?
// result true (1)

// query Dear colleague, could you confirm whether `O=C(NCCCc1ccccc1)c1cc(NCc2cc(O)ccc2O)ccc1O` has pIC50 at or above 6?
// result false (0)
